wild type FGFR-1 (Homo sapiens) IC50 data
Sequence (P11362 22-822): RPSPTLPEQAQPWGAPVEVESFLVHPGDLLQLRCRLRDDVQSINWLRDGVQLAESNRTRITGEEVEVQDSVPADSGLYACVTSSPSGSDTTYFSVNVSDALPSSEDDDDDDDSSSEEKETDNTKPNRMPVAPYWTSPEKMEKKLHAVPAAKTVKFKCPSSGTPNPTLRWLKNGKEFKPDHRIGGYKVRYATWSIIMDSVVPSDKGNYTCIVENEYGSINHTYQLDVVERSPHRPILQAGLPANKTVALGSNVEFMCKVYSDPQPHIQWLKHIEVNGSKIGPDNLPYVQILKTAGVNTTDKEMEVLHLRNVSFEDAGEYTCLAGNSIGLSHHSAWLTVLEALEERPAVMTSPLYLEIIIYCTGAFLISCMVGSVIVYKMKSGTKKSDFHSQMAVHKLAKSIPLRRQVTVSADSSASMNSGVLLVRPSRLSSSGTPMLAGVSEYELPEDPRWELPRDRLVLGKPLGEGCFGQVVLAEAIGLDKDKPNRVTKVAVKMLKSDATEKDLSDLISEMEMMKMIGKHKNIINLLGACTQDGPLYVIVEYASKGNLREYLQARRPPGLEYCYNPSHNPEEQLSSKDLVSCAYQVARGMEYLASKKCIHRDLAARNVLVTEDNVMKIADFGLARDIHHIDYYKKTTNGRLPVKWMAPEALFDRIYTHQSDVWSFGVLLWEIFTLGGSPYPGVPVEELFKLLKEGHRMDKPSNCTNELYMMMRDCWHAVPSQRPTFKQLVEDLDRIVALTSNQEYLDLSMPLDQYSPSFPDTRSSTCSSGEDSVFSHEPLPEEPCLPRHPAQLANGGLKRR

Sample answers from the record:
line-notation: C=CC(=O)Nc1cc(N2CCOCC2)cc(C)c1Nc1ncc2cc(-c3c(Cl)c(OC)cc(OC)c3Cl)ccc2n1
IC50: 100 to 1000 nM

line-notation: C=CC(=O)Nc1cccc(C)c1Nc1ncc2cc(-c3c(Cl)c(OC)cc(OC)c3Cl)cnc2n1
IC50: 100 to 1000 nM

line-notation: C=CC(=O)Nc1cccc(C)c1Nc1ncc2cc(-c3c(Cl)c(OC)cc(OC)c3Cl)ccc2n1
IC50: 100 to 1000 nM

line-notation: C=CC(=O)Nc1cccc(C(F)(F)F)c1Nc1ncc2cc(-c3c(Cl)c(OC)cc(OC)c3Cl)ccc2n1
IC50: > 1000 nM

// below: IC50 requested for another molecule
The observed IC50 for C=CC(=O)Nc1cccc(C)c1Nc1ncc2cc(-c3c(Cl)c(OC)cc(OC)c3Cl)cc(OC)c2n1 when tested with wild type FGFR-1 (Homo sapiens) stands at 100 to 1000 nM
